This section presents compounds with their documented log10 AUC(0-t) values.
# Format: in vivo, Wistar rats
# condition-set: male, Wistar, rat, plasma, po, 200 mg/kg
readout: log10 AUC(0-t) (log10 of the value in ng·h/mL)

1) C[C@]12CC[C@H](O)C[C@H]1CC[C@@H]1[C@@H]2CC[C@]2(C)[C@@H](c3ccc(=O)oc3)C[C@H]3O[C@]132 : 0.66
2) C[C@]12CC[C@H](O)C[C@H]1CC[C@@H]1[C@@H]2CC[C@]2(C)[C@@H](c3ccc(=O)oc3)CC[C@]12O : 1.23
3) C[C@]12CC[C@H](O)C[C@H]1CC[C@@H]1[C@@H]2[C@H](O)C[C@]2(C)[C@@H](c3ccc(=O)oc3)CC[C@]12O : 2.35
4) C[C@]12CC[C@H](O)C[C@H]1CC[C@@H]1[C@@H]2CC[C@]2(C)[C@@H](c3ccc(=O)oc3)[C@@H](O)[C@H]3O[C@]132 : 2.02
5) CC(=O)O[C@H]1[C@H]2O[C@]23[C@@H]2CC[C@@H]4C[C@@H](O)CC[C@]4(C)[C@H]2CC[C@]3(C)[C@H]1c1ccc(=O)oc1 : 0.72
6) C[C@]12CC[C@H](O)C[C@@]1(O)CC[C@@H]1[C@@H]2CC[C@]2(C)[C@@H](c3ccc(=O)oc3)CC[C@]12O : 0.86
